molecular target: Toll-like receptor 8 (Homo sapiens); experiment: Agonist activity at human TLR8 expressed in HEK cells after 8 to 12 hrs by NFkappaB/SEAP reporter gene assay
Sequence (Q9NR97 whole entry): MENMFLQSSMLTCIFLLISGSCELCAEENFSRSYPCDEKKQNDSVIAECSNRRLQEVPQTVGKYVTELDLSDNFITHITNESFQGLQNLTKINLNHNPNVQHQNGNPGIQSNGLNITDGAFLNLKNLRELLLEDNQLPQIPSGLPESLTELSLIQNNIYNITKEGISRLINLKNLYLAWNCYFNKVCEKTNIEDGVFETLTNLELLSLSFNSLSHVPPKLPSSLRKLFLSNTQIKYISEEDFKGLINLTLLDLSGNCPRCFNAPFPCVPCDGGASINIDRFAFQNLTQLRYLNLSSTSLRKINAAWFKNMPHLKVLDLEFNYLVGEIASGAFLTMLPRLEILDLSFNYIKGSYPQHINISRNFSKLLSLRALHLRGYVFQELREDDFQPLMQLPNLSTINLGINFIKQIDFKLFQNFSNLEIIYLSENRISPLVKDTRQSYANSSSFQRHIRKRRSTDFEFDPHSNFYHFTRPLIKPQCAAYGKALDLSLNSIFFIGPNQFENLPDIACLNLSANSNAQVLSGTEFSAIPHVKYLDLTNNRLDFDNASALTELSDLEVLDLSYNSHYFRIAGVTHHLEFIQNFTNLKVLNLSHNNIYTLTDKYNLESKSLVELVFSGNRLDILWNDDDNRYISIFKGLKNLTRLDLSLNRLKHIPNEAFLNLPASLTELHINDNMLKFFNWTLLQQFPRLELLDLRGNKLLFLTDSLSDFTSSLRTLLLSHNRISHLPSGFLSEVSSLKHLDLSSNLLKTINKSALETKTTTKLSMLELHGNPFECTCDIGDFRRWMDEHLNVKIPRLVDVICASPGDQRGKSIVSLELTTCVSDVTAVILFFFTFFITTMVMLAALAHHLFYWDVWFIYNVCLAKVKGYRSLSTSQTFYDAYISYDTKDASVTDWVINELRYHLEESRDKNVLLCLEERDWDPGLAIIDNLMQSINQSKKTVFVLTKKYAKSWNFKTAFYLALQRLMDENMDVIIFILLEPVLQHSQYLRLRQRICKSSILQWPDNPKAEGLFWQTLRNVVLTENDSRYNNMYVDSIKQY
Listed molecules paired with reported EC50
The reply should contain only the number, in µM.

[
  {
    "chem_smiles": "CCCCc1nc2c(N)nc3cc(C(=O)OC)ccc3c2n1CCO",
    "observed_measurement": 37
  },
  {
    "chem_smiles": "CCCCc1nc2c(N)nc3cc(C(=O)OC)ccc3c2n1CCCN",
    "observed_measurement": 26.7
  }
]

Alright, here's another molecule for you.
Quick check: EC50 of CCCCc1nc2c(N)nc3cc(C(=O)OC)ccc3c2n1CC(C)(C)O ? 20.9

---

Target: Toll-like receptor 7 (Homo sapiens)
Sequence (Q9NYK1 whole entry): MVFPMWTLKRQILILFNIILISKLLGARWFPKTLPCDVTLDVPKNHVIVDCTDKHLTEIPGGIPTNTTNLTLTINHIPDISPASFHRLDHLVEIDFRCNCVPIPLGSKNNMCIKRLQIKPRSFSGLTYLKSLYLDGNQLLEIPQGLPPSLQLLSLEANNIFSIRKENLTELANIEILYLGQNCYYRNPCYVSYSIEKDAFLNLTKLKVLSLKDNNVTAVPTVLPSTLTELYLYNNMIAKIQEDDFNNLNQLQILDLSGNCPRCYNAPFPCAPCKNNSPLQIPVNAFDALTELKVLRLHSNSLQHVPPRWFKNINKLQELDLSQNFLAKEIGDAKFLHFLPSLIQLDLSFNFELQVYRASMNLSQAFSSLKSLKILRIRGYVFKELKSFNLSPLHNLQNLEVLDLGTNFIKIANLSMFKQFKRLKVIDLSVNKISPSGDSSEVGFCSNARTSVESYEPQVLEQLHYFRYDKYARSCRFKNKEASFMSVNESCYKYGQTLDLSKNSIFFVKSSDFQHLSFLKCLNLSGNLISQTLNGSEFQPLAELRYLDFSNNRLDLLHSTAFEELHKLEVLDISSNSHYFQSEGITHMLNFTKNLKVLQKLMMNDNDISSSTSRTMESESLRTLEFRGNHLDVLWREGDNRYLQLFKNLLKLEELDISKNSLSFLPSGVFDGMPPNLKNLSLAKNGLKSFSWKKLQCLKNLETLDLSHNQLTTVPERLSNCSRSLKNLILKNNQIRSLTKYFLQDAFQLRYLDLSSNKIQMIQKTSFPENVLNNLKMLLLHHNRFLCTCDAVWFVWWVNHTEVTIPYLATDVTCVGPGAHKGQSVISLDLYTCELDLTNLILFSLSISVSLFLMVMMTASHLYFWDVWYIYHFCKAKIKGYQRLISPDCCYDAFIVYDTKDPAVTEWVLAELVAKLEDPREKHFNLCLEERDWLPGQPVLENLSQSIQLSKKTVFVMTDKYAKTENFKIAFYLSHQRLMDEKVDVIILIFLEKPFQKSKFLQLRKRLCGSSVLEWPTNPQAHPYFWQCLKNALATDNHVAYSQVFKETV
Experiment: Agonist activity at human TLR7 expressed in HEK cells after 8 to 12 hrs by NFkappaB/SEAP reporter gene assay
property_measured: pEC50
By convention, pEC50 is the negative base-10 log of a molar concentration.

Quick check: pEC50 of CCCCc1nc2c(N)nc3cc(C(=O)OC)ccc3c2n1CC(C)OC(C)=O (stereo unspecified) ? 5.51

Quick check: pEC50 of CCCCc1nc2c(N)nc3cc(C(=O)OC)ccc3c2n1CC(C)(C)O ? 5.77

Quick check: pEC50 of CCCCc1nc2c(N)nc3cc(C(=O)OC)ccc3c2n1CCO ? 4.84

Quick check: pEC50 of CCCCc1nc2c(N)nc3cc(C(=O)OC)ccc3c2n1CCCO ? 5.76

Quick check: pEC50 of CC(C)Cn1cnc2c(N)nc3ccccc3c21 ? 4.94

Quick check: pEC50 of CCCCc1nc2c(N)nc3cc(C(=O)OC)ccc3c2n1CCCCO ? 5.49
